IC50: recorded values
# systemUnderTest: HCV NS3/4A protease complex (Hepatitis C virus genotype 1a, UniProt P27958, C1454S/C1711G)
# Construct: DNA encoding the recombinant HCV NS3/4A protease complex (amino acids 1027 to 1711) for these strains were manipulated; inferred from pET21b vector and Ni-NTA purification
# Sequence (P27958 1027-1711 C1454S/C1711G, one chain of several): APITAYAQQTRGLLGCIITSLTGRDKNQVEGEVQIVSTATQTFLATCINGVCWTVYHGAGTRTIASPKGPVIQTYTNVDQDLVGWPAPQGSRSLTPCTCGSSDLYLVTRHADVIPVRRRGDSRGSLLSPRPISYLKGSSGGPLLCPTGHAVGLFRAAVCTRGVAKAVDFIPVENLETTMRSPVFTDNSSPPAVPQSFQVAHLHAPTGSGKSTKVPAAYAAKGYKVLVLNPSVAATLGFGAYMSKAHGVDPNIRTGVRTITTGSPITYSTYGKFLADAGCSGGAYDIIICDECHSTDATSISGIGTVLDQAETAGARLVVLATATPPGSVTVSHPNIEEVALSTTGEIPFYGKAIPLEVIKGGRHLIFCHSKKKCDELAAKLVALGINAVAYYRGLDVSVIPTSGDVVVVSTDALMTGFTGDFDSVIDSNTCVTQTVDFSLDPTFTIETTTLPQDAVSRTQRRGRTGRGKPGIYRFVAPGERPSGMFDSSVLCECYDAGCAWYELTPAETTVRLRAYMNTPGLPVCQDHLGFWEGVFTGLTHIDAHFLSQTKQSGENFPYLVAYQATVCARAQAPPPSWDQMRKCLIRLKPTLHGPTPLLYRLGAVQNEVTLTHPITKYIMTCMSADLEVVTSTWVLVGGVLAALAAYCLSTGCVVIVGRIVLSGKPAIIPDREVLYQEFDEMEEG
# testSummary: FRET peptide assay to monitor HCV NS3/4A proteolytic activity
# Text: HCV NS3 protease complexes, derived from the BMS strain, H77 strain or J4L6S strain, were generated, as described below. These purified recombinant proteins were generated for use in a homogeneous assay (see below) to provide an indication of how effective compounds of the present disclosure would be in inhibiting HCV NS3 proteolytic activity. Serum from an HCV-infected patient was obtained from Dr. T. Wright, San Francisco Hospital. […]
Could you give me the number in nM? Just the number is fine.

CC(C)(C)OC(=O)N[C@H]1CCCCC/C=C\C2C[C@@]2(C(=O)NS(=O)(=O)C2CC2)NC(=O)[C@@H]2C[C@@H](c3ccccc3)CN2C1=O (some centres unmarked); 18

Next up:
Need IC50 of CC(C)(C)OC(=O)N[C@H]1CCCCC/C=C\[C@@H]2C[C@@]2(C(=O)NS(=O)(=O)C2CC2)NC[C@@H]2C[C@@](O)(c3ccccc3)CN2C1=O , thanks. 9
